# Assay target: HTRA2, O43464
# Sequence (O43464 355-458): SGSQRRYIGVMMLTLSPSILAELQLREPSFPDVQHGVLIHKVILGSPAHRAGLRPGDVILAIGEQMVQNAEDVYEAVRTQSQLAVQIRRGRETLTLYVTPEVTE
# Method summary: holdup assay
# Set-up: key: below the threshold = too weak to quantify, mostly under pKd 3.1 to 4
# Stated conditions: plain residues with an end cap or a label only (N-terminal biotin on a linker: ado-ado)

| Binder | pKd |
| --- | --- |
| NTANRRTTPV [CACNG2, Q9Y698] | below the threshold |
| ARGPPRESEV [FAM110D, Q8TAY7] | below the threshold |
| NIAESLESLV [PTPRZ1, P23471] | below the threshold |
| GTGYDRKDYV [CLDN3, O15551] | below the threshold |
| EKCGKEFSEF [PRKACA, P17612] | below the threshold |
| REEPDHSTEV [CCRL2, O00421] | 3.54 |
| QLSFNTDTLC [ABCA2, Q9BZC7] | below the threshold |
| TNSRHGETTV [FZD2, Q14332] | below the threshold |
| GEDRSPPTAL [MKNK1, Q9BUB5] | below the threshold |
| SLNANEVEWF [RNF130, Q86XS8] | 3.51 |
| TISFTQTSQF [SLC1A1, P43005] | below the threshold |
| ILRKSTTTTV [PRR16, Q569H4] | below the threshold |
| DPAESMESLV [PTPRG, P23470] | below the threshold |
| KRPEMTSSSV [MUC3A, MUC3B, Q02505;Q9H195] | below the threshold |
| GIKKITSTAL [RPS6KA3, P51812] | 3.55 |
| AAVENKVTDL [PLXNB1, O43157] | below the threshold |
